- protocol: Distribution after oral administration (HPLC)
- Type: in vivo, rat
- testSettings: rat; liver, oral 50 mg/kg, 6 hours; read-out: Mean tissutal concentration
valueType: concentration at 6 h (ng/g)

>  <moleculeSmiles>
COC1=C(OC)C(=O)C(CC=C(C)CCC=C(C)CCC=C(C)CCC=C(C)CCC=C(C)CCC=C(C)CCC=C(C)CCC=C(C)CCC=C(C)CCC=C(C)C)=C(C)C1=O

>  <readoutUnits>
ng/g

>  <resultNumber>
9800

$$$$

---

- protocol: Distribution after oral administration (HPLC)
- Type: in vivo, rat
- testSettings: rat; heart, oral 50 mg/kg, 6 hours; read-out: Mean tissutal concentration
valueType: concentration at 6 h (ng/g)

>  <moleculeSmiles>
COC1=C(OC)C(=O)C(CC=C(C)CCC=C(C)CCC=C(C)CCC=C(C)CCC=C(C)CCC=C(C)CCC=C(C)CCC=C(C)CCC=C(C)CCC=C(C)C)=C(C)C1=O

>  <resultNumber>
14700

$$$$

---

- protocol: Distribution after parenteral (intramuscular) administration (HPLC)
- Type: in vivo, rat
- testSettings: rat, im; kidney, intramuscular 20 mg/kg, 30 min.; read-out: Mean tissutal concentration

>  <compound>
COC1=C(OC)C(=O)C(CC=C(C)CCC=C(C)CCC=C(C)CCC=C(C)CCC=C(C)CCC=C(C)CCC=C(C)CCC=C(C)CCC=C(C)CCC=C(C)C)=C(C)C1=O [Coenzyme Q10]

>  <readoutUnits>
ng/g

>  <concentration at 0.5 h>
9500

$$$$

---

- protocol: Distribution after parenteral (intramuscular) administration (HPLC)
- Type: in vivo, rat
- testSettings: rat, im; kidney, intramuscular 20 mg/kg, 60 min.; read-out: Mean tissutal concentration

>  <moleculeSmiles>
COC1=C(OC)C(=O)C(CC=C(C)CCC=C(C)CCC=C(C)CCC=C(C)CCC=C(C)CCC=C(C)CCC=C(C)CCC=C(C)CCC=C(C)CCC=C(C)C)=C(C)C1=O

>  <concentration at 1 h, ng/g>
11500

$$$$

---

- protocol: Distribution after parenteral (intramuscular) administration (HPLC)
- Type: in vivo, rat
- testSettings: rat, im; liver, intramuscular 20 mg/kg, 30 min.; read-out: Mean tissutal concentration

>  <molecule>
COC1=C(OC)C(=O)C(CC=C(C)CCC=C(C)CCC=C(C)CCC=C(C)CCC=C(C)CCC=C(C)CCC=C(C)CCC=C(C)CCC=C(C)CCC=C(C)C)=C(C)C1=O [Coenzyme Q10]

>  <concentration at 0.5 h [ng/g]>
11700

$$$$

---

- protocol: Distribution after oral administration (HPLC)
- Type: in vivo, rat
- testSettings: rat; plasma, oral 50 mg/kg, 6 hours; read-out: Mean plasmatic concentration

>  <compound>
COC1=C(OC)C(=O)C(CC=C(C)CCC=C(C)CCC=C(C)CCC=C(C)CCC=C(C)CCC=C(C)CCC=C(C)CCC=C(C)CCC=C(C)CCC=C(C)C)=C(C)C1=O [Coenzyme Q10]

>  <readoutUnits>
ng/mL

>  <concentration at 6 h>
2700

$$$$

---

- protocol: Distribution after oral administration (HPLC)
- Type: in vivo, rat
- testSettings: rat; heart, oral 50 mg/kg, 60 min.; read-out: Mean tissutal concentration

>  <moleculeSmiles>
COC1=C(OC)C(=O)C(CC=C(C)CCC=C(C)CCC=C(C)CCC=C(C)CCC=C(C)CCC=C(C)CCC=C(C)CCC=C(C)CCC=C(C)CCC=C(C)C)=C(C)C1=O

>  <concentration at 1 h>
12300 ng/g

$$$$

---

- protocol: Distribution after oral administration (HPLC)
- Format: in vivo, rat
- testSettings: rat; kidney, oral 50 mg/kg, 30 min.; read-out: Mean tissutal concentration
- Procedure: Rats were treated with 50 mg/kg of Coenzyme Q10 by oral route and the concentration of the active principle was determined by using the HPLC method in several organs after 30 min., 60 min. and 6 hours.

>  <moleculeSmiles>
COC1=C(OC)C(=O)C(CC=C(C)CCC=C(C)CCC=C(C)CCC=C(C)CCC=C(C)CCC=C(C)CCC=C(C)CCC=C(C)CCC=C(C)CCC=C(C)C)=C(C)C1=O

>  <concentration at 0.5 h [ng/g]>
6500

$$$$
